These entries and their values trace back to ChEMBL document CHEMBL5725203.

Recorded below: pIC50, system Poly [ADP-ribose] polymerase 1 (Homo sapiens, UniProt P09874).
pIC50: −log10 of the molar value.
QUANTITY_KIND: pIC50

MOLECULE: O=C1Nc2cc(Cl)ccc2C1C1CCN(C(=O)CCCc2nc3ccccc3c(=O)[nH]2)CC1 (racemic)
MEASUREMENT: 5.13
--
MOLECULE: O=C(CCCc1nc2ccccc2c(=O)[nH]1)N[C@H]1CC[C@H](Oc2ccccc2)C1
MEASUREMENT: 5.89
--
MOLECULE: COc1ccc2c(c1)[nH]c(=O)n2C1CCN(C(=O)CCCc2nc3ccccc3c(=O)[nH]2)CC1
MEASUREMENT: 5.75
--
MOLECULE: O=C(CCCc1nc2ccccc2c(=O)[nH]1)N1CCC(n2nnc3ccccc32)CC1
MEASUREMENT: 5.65

###

# IC50 listing for each entry below
target: Poly [ADP-ribose] polymerase 2 (Homo sapiens, UniProt Q9UGN5)
Sequence (Q9UGN5 whole entry): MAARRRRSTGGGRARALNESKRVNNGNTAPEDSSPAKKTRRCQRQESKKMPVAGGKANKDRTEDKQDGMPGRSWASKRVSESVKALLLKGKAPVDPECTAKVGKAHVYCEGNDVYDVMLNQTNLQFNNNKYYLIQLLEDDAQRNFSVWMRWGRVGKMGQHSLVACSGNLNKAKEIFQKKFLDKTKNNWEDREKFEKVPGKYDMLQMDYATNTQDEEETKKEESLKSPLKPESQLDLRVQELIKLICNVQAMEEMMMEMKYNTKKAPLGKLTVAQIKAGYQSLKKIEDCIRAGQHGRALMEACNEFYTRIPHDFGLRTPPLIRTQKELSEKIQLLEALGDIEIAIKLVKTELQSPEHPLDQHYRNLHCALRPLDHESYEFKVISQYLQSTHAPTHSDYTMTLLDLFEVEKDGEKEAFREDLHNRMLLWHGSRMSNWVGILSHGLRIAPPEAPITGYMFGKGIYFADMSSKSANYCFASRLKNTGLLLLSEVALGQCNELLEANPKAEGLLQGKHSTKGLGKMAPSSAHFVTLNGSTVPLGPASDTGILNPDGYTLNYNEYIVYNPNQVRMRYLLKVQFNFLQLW
QUANTITY_KIND: IC50 (nM)

COMPOUND: O=C(CCCc1nc2ccccc2c(=O)[nH]1)N[C@H]1CC[C@H](Oc2ccccc2)C1
MEASUREMENT: 893
--
COMPOUND: COc1ccc2c(c1)[nH]c(=O)n2C1CCN(C(=O)CCCc2nc3ccccc3c(=O)[nH]2)CC1
MEASUREMENT: 160
--
COMPOUND: O=C(CCCc1nc2ccccc2c(=O)[nH]1)N1CCC(n2nnc3ccccc32)CC1
MEASUREMENT: 1370
--
COMPOUND: O=C(CCCc1nc2ccccc2c(=O)[nH]1)N1CCC(c2noc3ccc(F)cc23)CC1
MEASUREMENT: 1440
--
COMPOUND: O=C1Nc2cc(Cl)ccc2C1C1CCN(C(=O)CCCc2nc3ccccc3c(=O)[nH]2)CC1 (racemic)
MEASUREMENT: 251
